System: lactate dehydrogenase (LDH)
test-protocol: ELISA analysis of phage on LDH (irrelevant, non-specific target)
Format: binding
assay-setup: peptide binding to LDH polypeptide (non-specific binding); phage ELISA units read at 405 nm
measured-property: LDH (OD)
Give just the numeric value; OD need not be written.

GLYQRGLAPRCRGERFGVRN (DGI-2-20F-PP-C2; listed as Escherichia coli) :: 1.1
GHGAGDWAAELFVCPVAFLTGFAWR (DGI-2-20R-4-H2; listed as Escherichia coli) :: 1.1
SVTISTSCRTGCPAGYLRRD (DGI-2-20F-PP-D2; listed as Escherichia coli) :: 0.7

Consider now this further substance.
Q: Supply recorded LDH (OD) for DYKTCVSQHVHPLFGEYFYHKVTHMSILSPTFRVTSLYG.K (DYKTCVSQHVHPLFGEYFYHKVTHMSILSPTFRVTSLYGK; DGI-2-40F-3-B95; listed as Escherichia coli) here.
Ans: 0.8

The origin of these recorded values is patent US7056679B2.
